B1: HDV Ribozyme (parent)
chain: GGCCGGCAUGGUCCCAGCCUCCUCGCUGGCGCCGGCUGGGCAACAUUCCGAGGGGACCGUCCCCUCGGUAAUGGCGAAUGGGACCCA

Variants of: B1
method description: self-cleavage, relative activity (ratio to wild type); higher = more cleavage; co-transcriptional
assay readout: self-cleavage
Just the number, please, no unit attached.

[in] Quote self-cleavage reported for U69A G76U please.
[out] 0.95

[in] Give a short answer stating reported self-cleavage for G6C C84G .
[out] 0.138

[in] Please list self-cleavage recorded for the variant G54C C75G
[out] 0.151

[in] Assign self-cleavage to the following record: G35C A51U
[out] 0.396

[in] Output self-cleavage of A51G G52C
[out] 0.789

[in] Assign self-cleavage to the following record: C7U G39U
[out] 0.289

[in] Input G40U C41U , output reported self-cleavage.
[out] 0.937

[in] Identify measured self-cleavage corresponding to A8U G55U
[out] 0.635

[in] // fetch self-cleavage given entry G28C G59U
[out] 0.0678

[in] Using the record for C13U C85A , state its measured self-cleavage.
[out] 0.475

[in] # return recorded self-cleavage for entry G54C C75A
[out] 0.138

[in] Quickly give me recorded self-cleavage for U12G C36U
[out] 0.415

[in] Note down self-cleavage recorded for C64A A83C
[out] 0.332

[in] Given the variant G11A C44U , write its reported self-cleavage.
[out] 0.0723

[in] Consider the variant G38A C66U . State its measured self-cleavage.
[out] 0.128

[in] Using the record for G38A C85G , state its measured self-cleavage.
[out] 0.157

[in] Return self-cleavage (reported value) for this variant: G76C A87C
[out] 1.08

[in] Find the measured self-cleavage of G52U G53U and report it.
[out] 0.733

[in] # return recorded self-cleavage for entry G25C A56G
[out] 0.161

[in] Please list self-cleavage recorded for the variant C3U U27G
[out] 0.723

[in] Note self-cleavage for the variant shown: C7G G34A
[out] 0.115

[in] Give recorded self-cleavage. G5U A8U
[out] 0.208

[in] Query self-cleavage for U20A G81A
[out] 0

[in] Hello, please tell me recorded self-cleavage for this one: C15U G82U
[out] 0.231

[in] Fill in reported self-cleavage for this entry: A45G C58U
[out] 0.906

[in] Using the record for G11U U69A , state its measured self-cleavage.
[out] 0.317

[in] Tell us which self-cleavage value is on record for C4G A71G
[out] 0.277

[in] # return recorded self-cleavage for input G17U G80A
[out] 0.272

[in] Please look at this variant and report its self-cleavage: A42U A45G
[out] 0.237

[in] Tell me self-cleavage reported for G34U G67U
[out] 0.231

[in] Quick one: give measured self-cleavage for C41U C86G
[out] 0.784

[in] Quote self-cleavage reported for C44G A56G please.
[out] 0.886

[in] Identify the reported self-cleavage for the following entry. C15A U47C
[out] 0.317

[in] Annotate the variant G68A A70U with its measured self-cleavage.
[out] 1.12

[in] In one line, give reported self-cleavage of the entry C3A C84G .
[out] 0.158

[in] Return the recorded self-cleavage value; entry: U23C C48U
[out] 0.806

[in] Entry C14U C33A needs its self-cleavage filled in; supply it.
[out] 0.201

[in] Using the record for G54C A77C , state its measured self-cleavage.
[out] 0.426

[in] Provide one value: measured self-cleavage of G55U G74A
[out] 0.668

[in] State its self-cleavage: C32A G55U
[out] 0.219

[in] Complete the entry with self-cleavage for C64U U69G
[out] 1.07

[in] Report self-cleavage, nothing else, for this variant: U9G G76U
[out] 1.13

[in] Specify self-cleavage for U37C A77C and stop.
[out] 0.415

[in] Give the value of self-cleavage reported for the following: G1U G81U
[out] 0.41

[in] Respond only with self-cleavage recorded for C7U G67C
[out] 0.529

[in] Please look at this variant and report its self-cleavage: C18A G39C
[out] 0.0755
